Test target: mTORC1 (Homo sapiens (Human), UniProt P42345+P62942)
Assay details: mTORC1 inhibition, AlphaLISA of Phospho-p70 S6 kinase (p70S6K pT389) in PC-3 cells
Assay type: cell-based
Test context: inhibition of p70S6K pT389 levels
Readout: IC50

Worked examples, 3 compounds total:
COCCS(=O)(=O)NC1CC2CCC(C)C(O)(O2)C(=O)C(=O)N2CCCCC2C(=O)OC(C(C)CC2CCC(OCCCO)C(OC)C2)CC(=O)C(C)C=C(C)C(O)C(OC)C(=O)C(C)CC(C)C=CC=CC=C1C (mixture of isomers)	100 to 800 pM
COC1CC(CC(C)C2CC(=O)C(C)C=C(C)C(O)C(OC)C(=O)C(C)CC(C)C=CC=CC=C(C)C(NS(=O)(=O)C3CC3)CC3CCC(C)C(O)(O3)C(=O)C(=O)N3CCCCC3C(=O)O2)CCC1O (mixture of isomers)	100 to 800 pM
COC1CC(CC(C)C2CC(=O)C(C)C=C(C)C(O)C(OC)C(=O)C(C)CC(C)C=CC=CC=C(C)C(OCC3CC3)CC3CCC(C)C(O)(O3)C(=O)C(=O)N3CCCCC3C(=O)O2)CCC1OCCO (centres unmarked)	100 to 800 pM

Report IC50 for every entry below.
1. CCOC(=O)COC1CCC(CC(C)C2CC(=O)C(C)C=C(C)C(O)C(OC)C(=O)C(C)CC(C)C=CC=CC=C(C)C(OCC3CC3)CC3CCC(C)C(O)(O3)C(=O)C(=O)N3CCCCC3C(=O)O2)CC1OC (centres unmarked) [Compound 51]
2. CO[C@@H]1C[C@H](C[C@@H](C)[C@@H]2CC(=O)[C@H](C)/C=C(\C)[C@@H](O)[C@@H](OC)C(=O)[C@H](C)C[C@H](C)/C=C/C=C/C=C(\C)[C@H](NS(=O)(=O)CC3CCCCC3)C[C@@H]3CC[C@@H](C)[C@@](O)(O3)C(=O)C(=O)N3CCCC[C@H]3C(=O)O2)CC[C@H]1O
3. COC1CC(CC(C)C2CC(=O)C(C)C=C(C)C(O)C(OC)C(=O)C(C)CC(C)C=CC=CC=C(C)C(OC3CCOCC3)CC3CCC(C)C(O)(O3)C(=O)C(=O)N3CCCCC3C(=O)O2)CCC1O (centres unmarked)
4. CCOC(=O)COC1CCC(CC(C)C2CC(=O)C(C)C=C(C)C(O)C(OC)C(=O)C(C)CC(C)C=CC=CC=C(C)C(OCC3CC3)CC3CCC(C)C(O)(O3)C(=O)C(=O)N3CCCCC3C(=O)O2)CC1OC (centres unmarked) [Compound 50]
5. CO[C@@H]1C[C@H](C[C@@H](C)[C@@H]2CC(=O)[C@H](C)/C=C(\C)[C@@H](O)[C@@H](OC)C(=O)[C@H](C)C[C@H](C)/C=C/C=C/C=C(\C)[C@@H](OCC3CCC3)C[C@@H]3CC[C@@H](C)[C@@](O)(O3)C(=O)C(=O)N3CCCC[C@H]3C(=O)O2)CC[C@H]1OCCCS(C)(=O)=O

1: > 800 pM; 2: > 800 pM; 3: > 800 pM; 4: > 800 pM; 5: > 800 pM

---

Test target: mTORC1 (Homo sapiens (Human), UniProt P42345+P62942)
Assay details: mTORC1 inhibition, AlphaLISA of Phospho-p70 S6 kinase (p70S6K pT389) in PC-3 cells
Assay type: cell-based
Test context: inhibition of p70S6K pT389 levels
Readout: IC50

Example results:
CO[C@@H]1C[C@H](C[C@@H](C)[C@@H]2CC(=O)[C@H](C)/C=C(\C)[C@@H](O)[C@@H](OC)C(=O)[C@H](C)C[C@H](C)/C=C/C=C/C=C(\C)[C@H](NS(=O)(=O)CC3CCOCC3)C[C@@H]3CC[C@@H](C)[C@@](O)(O3)C(=O)C(=O)N3CCCC[C@H]3C(=O)O2)CC[C@H]1O	0.1 to 0.8 nM
COCCOCCOCCS(=O)(=O)N[C@H]1C[C@@H]2CC[C@@H](C)[C@@](O)(O2)C(=O)C(=O)N2CCCC[C@H]2C(=O)O[C@H]([C@H](C)C[C@@H]2CC[C@@H](O)[C@H](OC)C2)CC(=O)[C@H](C)/C=C(\C)[C@@H](O)[C@@H](OC)C(=O)[C@H](C)C[C@H](C)/C=C/C=C/C=C/1C	0.1 to 0.8 nM

Now for a further compound.
Fill in IC50 for record CO[C@@H]1C[C@H](C[C@@H](C)[C@@H]2CC(=O)[C@H](C)/C=C(\C)[C@@H](O)[C@@H](OC)C(=O)[C@H](C)C[C@H](C)/C=C/C=C/C=C(\C)[C@@H](NS(=O)(=O)CC3CCCC3)C[C@@H]3CC[C@@H](C)[C@@](O)(O3)C(=O)C(=O)N3CCCC[C@H]3C(=O)O2)CC[C@H]1O
> 0.8 nM
